The reported numbers originate from PubChem BioAssay (NCI).

Tested on: U251 CNS
Assay: NCI-60 one-dose screen, 48 h (100 = growth as untreated, 0 = no growth, -100 = all killed)
Conditions: 10 µM
The panel holds about 83,000 compounds, 20% with a hit somewhere; the sample as a whole holds those more often.
The following molecules are listed with their measured growth values.
measuredMetric: growth (%)

>>> valuereported("CO[C@@H]1CSS[C@H]1Cn1nc(-c2ccc(Oc3ccccc3)cc2)c2c(N)ncnc21")
60
>>> valuereported("CN1CCN(c2ccc(Nc3nc(NCCCNC(=O)c4ccc(F)cc4)c4sccc4n3)cc2)CC1")
19.7
>>> valuereported("Nc1nc(Nc2ccc(Cl)cc2)n(Cc2cccc(Br)c2)n1")
-12.4
>>> valuereported("CC1(C)CC[C@]2(C(=O)Nc3ccccc3)CC[C@]3(C)C(=CC[C@@H]4[C@@]5(C)CC[C@H](N)C(C)(C)[C@@H]5CC[C@]43C)[C@H]2C1")
-47.5
>>> valuereported("COc1cc(-c2nc3cc(Cl)c(Cl)cc3[nH]2)ccc1OCc1nnc(-c2ccc(Br)cc2)o1")
1.03
>>> valuereported("COc1ccc(-c2c(N)c(=O)n(C)c3ccccc23)cc1")
47.8
>>> valuereported("Cn1cc(-c2cc(N)n3nc(-c4c[nH]c5ccc(Br)cc45)cc3n2)c2cc(Br)cnc21")
-76.5
>>> valuereported("COC(=O)C[C@](O)(CCCC(C)(C)O)C(=O)O[C@H]1C(OC)=C[C@@]23CCC(=O)N2CCc2cc4c(cc2[C@@H]13)OCO4")
114

----------
Tested on: NCI-H23 lung
Experiment: NCI-60 one-dose screen, 48 h (100 = growth as untreated, 0 = no growth, -100 = all killed)
Settings: 10 µM
The panel holds about 83,000 compounds, 20% with a hit somewhere; the sample as a whole holds those more often.
So basically: is growth under 40%? Then True. Not under? Then False.

>>> classname("O=C(Nc1ccccc1)Nc1nc2ccccc2s1")
"False"
>>> classname("COc1ccc([C@H]2C(C(=O)c3ccc(Cl)cc3)C3(N[C@@H]2c2ccccc2)C(=O)Nc2ccc(Cl)cc23)cc1 (some centres undefined)")
"True"
>>> classname("Cc1cc2c(c(O)c1Br)-c1ncoc1C(=O)[C@]1(C)CC[C@H](C(C)C)[C@H]21")
"True"
>>> classname("COc1ccc2nc(Nc3cccc(NC(=O)c4ccc(CN5CCN(C)CC5)c(C(F)(F)F)c4)c3)ccc2c1")
"True"
>>> classname("Nc1n[nH]c2cccc(C#Cc3cccc(NC(=O)Nc4cc(C(F)(F)F)cc(C(F)(F)F)c4)c3)c12")
"True"
>>> classname("CCCn1c(=O)c2[nH]c(-c3ccc(OCc4nc5ccc(F)cc5[nH]4)cc3)nc2n(CCC)c1=O")
"True"
>>> classname("COc1cccc(COc2ccc(/C=C3\\Oc4cc(O)ccc4C3=O)cc2)c1")
"False"
>>> classname("COc1cc2c(c(OC)c1OC)C(=O)CC(c1cccc(NC(=O)c3cccc(N)c3)c1)O2 (centres undefined)")
"False"

----------
The following compounds are listed with their measured growth values.
Test system: NCI-H226 lung
Experiment: NCI-60 one-dose screen, 48 h (100 = growth as untreated, 0 = no growth, -100 = all killed)
Settings: 10 µM
Protocol: Growth inhibition of the NCI-H226 human Non-Small Cell Lung tumor cell line is measured as a screen for anti-cancer activity. Cells are grown in 96 well plates and exposed to the test compound for 48 hours. Compounds are tested at a single concentration, which is 10^-5 M for most compounds. The reported endpoint is percent growth (GI% or GIPRCNT), where numbers from 0 - 100% represent growth inhibition, and numbers from -100% - 0 represent cell death. […]
About 83,000 compounds went through this panel and 20% of them were active in at least one assay; those are over-represented in the sample as a whole. Active and inactive are the calls of the source. Rule for the calls: active = growth percent below 10; inactive = the rest.
measuredMetric: growth

>>> valuereported("COc1ccccc1[C@H]1C(C(=O)c2ccc(Cl)cc2)C2(N[C@@H]1c1ccccc1)C(=O)Nc1ccccc12 (some centres undefined)")
"-53.2% (active)"
>>> valuereported("CN(CCF)c1ccc(/C=C/C(=O)c2ccc(N)cc2O)cc1")
"93.8% (inactive)"
>>> valuereported("COc1ccc(/C=N/N=C(\\C)c2ccc3c(c2)Nc2ccccc2S3)cc1O")
"49.2% (inactive)"
>>> valuereported("COc1ccc(/C=C/C(=O)c2ccc(S(=O)(=O)NCCNc3nc(Nc4ccc(F)cc4)nc(N(C)C)n3)cc2)cc1")
"21.7% (inactive)"
>>> valuereported("C/C(=C\\c1ccc(O)cc1O)c1ccc2ccc(O)cc2[o+]1")
"66.2% (inactive)"
>>> valuereported("NS(=O)(=O)c1ccc(NC(=O)CSc2ccc(-c3ccccc3)nn2)c(Br)c1")
"20.5% (inactive)"
>>> valuereported("O=C1Nc2ccc(Cl)cc2/C1=C/c1cccc(OCc2ccccc2)c1")
"17.2% (inactive)"
>>> valuereported("O=C(N=Nc1c(O)[nH]c2ccc(Br)cc12)c1ccc2nc(-c3ccccc3)[nH]c2c1")
"-47.9% (active)"
>>> valuereported("O=C(CNc1nc(-c2ccccc2)cs1)Nc1ccc(Cl)cc1[N+](=O)[O-]")
"-54.2% (active)"
>>> valuereported("COc1ccc(OC)c(/C=N/NC(=O)c2ccc3nc(-c4ccc(Cl)cc4)[nH]c3c2)c1")
"64.3% (inactive)"
>>> valuereported("Cc1cccc2cc(-c3cc(-c4ccccc4)nc(=S)[nH]3)c(Cl)nc12")
"90.5% (inactive)"
>>> valuereported("N#Cc1c(NC(=O)c2ccc(C(O)(C(F)(F)F)C(F)(F)F)cc2)sc2c1CCC(=O)C2")
"-57.2% (active)"
>>> valuereported("Cc1ccc(-c2cc(C(=O)N=Nc3c(O)[nH]c4ccccc34)c3ccccc3n2)cc1")
"47% (inactive)"
>>> valuereported("COc1ccc(/C(C)=N/N=C2C(=O)N(C)c3ccc(Br)cc32)cc1S(N)(=O)=O")
"43.6% (inactive)"
>>> valuereported("O=C(/C=C/Nc1ccccc1)c1ccc2c(c1)Nc1ccccc1S2")
"43.5% (inactive)"
>>> valuereported("O=C(Cc1ccc2c(c1)CN(C1CCC(=O)NC1=O)C2=O)NCCc1ccccc1 (centres undefined)")
"11.4% (inactive)"
>>> valuereported("COc1cc(NC(=O)CSc2nnc(-c3ccc4nc(-c5ccc(Cl)cc5)[nH]c4c3)o2)cc(OC)c1OC")
"38.7% (inactive)"
>>> valuereported("COc1ccc2c3nc4cc(C)c(C)cc4nc3n(CCN(C)C)c2c1")
"12.1% (inactive)"
>>> valuereported("CC1(C)CC[C@]2(C(=O)O)CC[C@]3(C)C(=CC[C@@H]4[C@@]5(C)C/C(=C/c6ccncc6)[C@H](O)C(C)(C)[C@@H]5CC[C@]43C)[C@@H]2C1")
"38.2% (inactive)"
